Biological target: T1, human IL-23 (IL-23-His-Biotin, Akesobio, 20161209) (human, UniProt Q9NPF7 20-189; P29460 23-328)
T1 construct: His-tagged and biotinylated; also called human IL23-His-Biotin
T1 sequence (looked up) 1: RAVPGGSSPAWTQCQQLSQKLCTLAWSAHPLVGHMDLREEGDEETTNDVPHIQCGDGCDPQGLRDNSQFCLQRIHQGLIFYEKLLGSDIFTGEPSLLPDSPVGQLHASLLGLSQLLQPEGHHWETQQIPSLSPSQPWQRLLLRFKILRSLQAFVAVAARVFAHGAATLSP
T1 sequence (looked up) 2: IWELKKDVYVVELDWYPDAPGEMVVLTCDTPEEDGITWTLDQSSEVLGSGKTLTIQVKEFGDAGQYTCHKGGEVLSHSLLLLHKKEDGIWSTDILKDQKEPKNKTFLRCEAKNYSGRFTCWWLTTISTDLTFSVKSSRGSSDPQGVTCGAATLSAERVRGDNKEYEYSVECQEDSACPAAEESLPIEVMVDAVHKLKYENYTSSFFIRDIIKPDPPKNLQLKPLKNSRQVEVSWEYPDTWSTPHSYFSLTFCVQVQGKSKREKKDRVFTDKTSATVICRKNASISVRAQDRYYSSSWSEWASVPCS
Assay: FACS competition, IL-23-His-Biotin 2 µg/mL on 293T-IL-12RB1&IL-23R cells, antibody 3.33 µg/mL
So basically: is MFI under 20? Then 1. Not under? Then 0.

[[record]]
binder = "H5L10 (antibody, human IgG1, kappa, V domains shown, IgG1/kappa) VH: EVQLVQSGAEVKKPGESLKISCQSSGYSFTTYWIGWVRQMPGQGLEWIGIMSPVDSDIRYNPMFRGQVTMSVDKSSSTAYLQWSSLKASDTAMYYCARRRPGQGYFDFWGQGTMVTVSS VL: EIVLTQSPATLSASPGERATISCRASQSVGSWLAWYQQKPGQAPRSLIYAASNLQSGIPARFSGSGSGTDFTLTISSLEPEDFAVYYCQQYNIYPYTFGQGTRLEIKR"
discrete_label = 1

[[record]]
binder = "H5L12 (antibody, human IgG1, kappa, V domains shown, IgG1/kappa) VH: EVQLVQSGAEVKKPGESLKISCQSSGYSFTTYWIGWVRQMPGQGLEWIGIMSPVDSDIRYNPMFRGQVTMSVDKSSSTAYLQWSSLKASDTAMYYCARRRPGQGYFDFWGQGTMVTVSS VL: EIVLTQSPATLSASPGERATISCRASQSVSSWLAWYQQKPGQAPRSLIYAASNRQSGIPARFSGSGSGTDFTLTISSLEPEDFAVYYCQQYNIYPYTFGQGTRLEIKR"
discrete_label = 1

[[record]]
binder = "ustekinumab (trade name Stelara) (antibody, V domains shown) VH: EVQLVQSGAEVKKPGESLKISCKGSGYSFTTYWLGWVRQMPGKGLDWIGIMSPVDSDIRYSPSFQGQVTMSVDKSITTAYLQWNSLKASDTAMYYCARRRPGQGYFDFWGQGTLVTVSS VL: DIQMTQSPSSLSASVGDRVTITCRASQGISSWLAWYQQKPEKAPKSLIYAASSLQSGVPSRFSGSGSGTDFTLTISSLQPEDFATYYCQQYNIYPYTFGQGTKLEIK"
discrete_label = 1

[[record]]
binder = "H5L9 (antibody, human IgG1, kappa, V domains shown, Humanized anti-human IL-12/IL-23 p40 antibody; IgG1 (P01857) / kappa (P01834) constant regions) VH: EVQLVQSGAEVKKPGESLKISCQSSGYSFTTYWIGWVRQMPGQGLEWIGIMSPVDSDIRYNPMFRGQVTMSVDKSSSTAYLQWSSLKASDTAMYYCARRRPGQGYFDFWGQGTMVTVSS VL: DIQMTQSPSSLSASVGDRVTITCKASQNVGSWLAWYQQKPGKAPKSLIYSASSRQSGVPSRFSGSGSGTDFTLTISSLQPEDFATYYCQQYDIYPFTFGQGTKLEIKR"
discrete_label = 0


Then there is this binder:
Hello, I'm reviewing records and need to know if MFI of H5L14 (antibody, human IgG1, kappa, V domains shown, IgG1/kappa) VH: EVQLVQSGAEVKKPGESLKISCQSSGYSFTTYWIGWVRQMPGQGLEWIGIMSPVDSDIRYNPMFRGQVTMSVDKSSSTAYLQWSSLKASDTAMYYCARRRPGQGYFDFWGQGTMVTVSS VL: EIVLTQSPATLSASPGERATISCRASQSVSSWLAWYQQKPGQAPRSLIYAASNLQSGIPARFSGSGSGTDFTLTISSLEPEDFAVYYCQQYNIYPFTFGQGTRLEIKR is below 20. Could you check?
0
